Protocol Summary: Pharmacokinetics in Sprague Dawley rats (plasma and brain concentrations, PK parameters)
Type: in vivo
Test Conditions: Sprague Dawley, rat, plasma, iv, 3 mg/kg, Sprague Dawley rat, iv 3 mg/kg, mean of 3 rats; read-out: T1/2 Mean (converted)

| Compound | half-life [h] |
| --- | --- |
| O=C1CCC(N2C(=O)c3cccc(NCCOCCOCCNCc4ccc(-n5cc(NC(=O)c6coc(-c7ccnc(NCC8CC8)c7)n6)c(C(F)F)n5)cc4)c3C2=O)C(=O)N1 (stereo not shown) [I-210] | 2.79 |

----------
Protocol Summary: Pharmacokinetics in CD-1 mice (plasma concentrations, PK parameters)
Assay type: in vivo
Test Conditions: CD-1, mouse, plasma, iv, 2 mg/kg, mouse (CD1) iv 2 mg/kg; individual Mouse 1-3; read-out: AUClast
Procedure: Pharmacokinetics for I-127, I-172 and I-210 were determined in Sprague Dawley rats or CD-1 mice by dosing intravenous (IV), subcutaneous (SC) or per oral (PO) using facility SOPs and sampling plasma at required time points. […] Compounds were extracted from plasma, injected on reverse phase HPLC, eluted with a gradient from 5% to 95% acetonitrile in water and quantified by mass spectrometry with internal standard. […]
Parameter Measured: AUC(0-t)

| Molecule | Result |
| --- | --- |
| NC(=O)c1nn(-c2ccc(C(=O)NCCCCCNCCNc3cccc4c3C(=O)N(C3CCC(=O)NC3=O)C4=O)cc2)cc1NC(=O)c1coc(-c2ccnc(NCC(F)(F)F)c2)n1 (centres unmarked) | 1260 ng·h/mL |
| O=C1CCC(N2C(=O)c3cccc(NCCOCCOCCNCc4ccc(-n5cc(NC(=O)c6coc(-c7ccnc(NCC8CC8)c7)n6)c(C(F)F)n5)cc4)c3C2=O)C(=O)N1 (centres unmarked) | 701 ng·h/mL |

----------
Protocol Summary: Pharmacokinetics in Sprague Dawley rats (plasma and brain concentrations, PK parameters)
Type: in vivo
Test Conditions: Sprague-Dawley, rat, plasma, iv, 3 mg/kg, Sprague Dawley rat, iv 3 mg/kg, mean of 3 rats; read-out: MRTInf_obs Mean
Parameter Measured: MRT inf (h)

| Compound | Parameter Measured | Units Symbol | Readout Number |
| --- | --- | --- | --- |
| O=C1CCC(N2C(=O)c3cccc(NCCOCCOCCNCc4ccc(-n5cc(NC(=O)c6coc(-c7ccnc(NCC8CC8)c7)n6)c(C(F)F)n5)cc4)c3C2=O)C(=O)N1 (stereo not shown) | MRT inf | h | 3.11 |

----------
Protocol Summary: Pharmacokinetics in CD-1 mice (plasma concentrations, PK parameters)
Assay type: in vivo
Test Conditions: CD-1, mouse, plasma, sc, 30 mg/kg, mouse (CD1) sc 30 mg/kg; individual M07-M09

| Molecule | half-life, h |
| --- | --- |
| NC(=O)c1nn(-c2ccc(C(=O)NCCOCCOCCNc3cccc4c3C(=O)N(C3CCC(=O)NC3=O)C4=O)cc2)cc1NC(=O)c1coc(-c2ccnc(NCC(F)(F)F)c2)n1 (stereo not shown) [I-127] | 39.2 |

----------
Tested On: IRAK4 (Homo sapiens, UniProt Q9NWZ3)
Sequence (Q9NWZ3 whole entry): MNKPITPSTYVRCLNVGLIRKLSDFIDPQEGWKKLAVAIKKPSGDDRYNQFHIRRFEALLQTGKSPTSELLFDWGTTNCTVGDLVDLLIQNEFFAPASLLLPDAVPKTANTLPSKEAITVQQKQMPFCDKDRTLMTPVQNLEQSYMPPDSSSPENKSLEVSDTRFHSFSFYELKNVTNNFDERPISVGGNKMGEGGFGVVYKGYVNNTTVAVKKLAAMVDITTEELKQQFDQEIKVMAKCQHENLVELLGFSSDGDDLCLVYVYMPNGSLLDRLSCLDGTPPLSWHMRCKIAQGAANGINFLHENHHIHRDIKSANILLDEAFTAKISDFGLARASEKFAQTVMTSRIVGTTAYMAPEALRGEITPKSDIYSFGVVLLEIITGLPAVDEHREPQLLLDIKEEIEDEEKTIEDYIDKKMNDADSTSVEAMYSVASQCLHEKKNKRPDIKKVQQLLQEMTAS
Protocol Summary: OCI-LY-10 degradation assay (western blot, % IRAK4 degraded after 4 hours)
Format: cell-based
Parameters: endogenous in cells; host or cells: OCI-LY10
Test Conditions: OCI-LY10 cells, 4 hours, 0.1 uM compound

| Compound | OCI-LY10 % IRAK4 Degradation (0.1 uM) |
| --- | --- |
| NC(=O)c1nn(-c2ccc(CNCCOCCOCCn3c(=O)n(C4CCC(=O)NC4=O)c4ccccc43)cc2)cc1NC(=O)c1coc(-c2ccnc(NCC3CC3)c2)n1 (centres unmarked) [I-319] | A (>50% degradation) |
| NC(=O)c1nn(-c2ccc(C(=O)NCCOCCOCCNc3cccc4c3C(=O)N(C3CCC(=O)NC3=O)C4=O)cc2)cc1NC(=O)c1coc(-c2ccnc(C3CC3)c2)n1 (centres unmarked) [I-424] | B (>20-50% degradation) |
| O=C1CCC(N2C(=O)c3cccc(NCCc4cnnn4CCOCCOCCNCc4ccc(-n5cc(NC(=O)c6coc(-c7ccnc(NCC8CC8)c7)n6)c(C(F)F)n5)cc4)c3C2=O)C(=O)N1 (centres unmarked) [I-342] | B (>20-50% degradation) |
| O=C1CCC(N2C(=O)c3cccc(NC4CCN(CCOCCOCCNC(=O)c5ccc(-n6cc(NC(=O)c7coc(-c8ccnc(NCC(F)(F)F)c8)n7)c(C(F)F)n6)cc5)CC4)c3C2=O)C(=O)N1 (centres unmarked) [I-283] | A (>50% degradation) |
| O=C1CCC(N2C(=O)c3cccc(OCCc4cnnn4CCOCCOCCNCc4ccc(-n5cc(NC(=O)c6coc(-c7ccnc(NCC8CC8)c7)n6)c(C(F)F)n5)cc4)c3C2=O)C(=O)N1 (centres unmarked) [I-346] | A (>50% degradation) |
| O=C1CCC(N2C(=O)c3cccc(CCCNCCCCCNC(=O)c4ccc(-n5cc(NC(=O)c6coc(-c7ccnc(NCC8CC8)c7)n6)c(C(F)(F)F)n5)cc4)c3C2=O)C(=O)N1 (centres unmarked) [I-221] | B (>20-50% degradation) |
| Cn1c(=O)n(C2CCC(=O)NC2=O)c2ccc(CCCOCCOCCNCc3ccc(-n4cc(NC(=O)c5coc(-c6ccnc(NCC(F)(F)F)c6)n5)c(C(N)=O)n4)cc3)cc21 (centres unmarked) [I-327] | B (>20-50% degradation) |
| O=C1CCC(N2C(=O)c3cccc(OCc4cnnn4CCOCCOCCNCn4cc(NC(=O)c5coc(-c6ccnc(NCC7CC7)c6)n5)c(C(F)F)n4)c3C2=O)C(=O)N1 (centres unmarked) [I-383] | C (<20% degradation) |
| Cn1c(=O)n(C2CCC(=O)NC2=O)c2cccc(CCCOCCOCCNCc3ccc(-n4cc(NC(=O)c5coc(-c6ccnc(NCC(F)(F)F)c6)n5)c(C(N)=O)n4)cc3)c21 (centres unmarked) [I-328] | A (>50% degradation) |
| CC(=O)O[C@@H]1C[C@@H](C(=O)NCc2ccc(-n3cc(NC(=O)c4coc(-c5ccnc(NCC6CC6)c5)n4)c(C(F)F)n3)cc2)N(C(=O)[C@@H](NC(=O)COCCOCCOCCNc2cccc3c2C(=O)N(C2CCC(=O)NC2=O)C3=O)C(C)(C)C)C1 (some centres unmarked) [I-285] | C (<20% degradation) |
| CN(CCOCCOCCCc1ccc2c(c1)C(=O)N(C1CCC(=O)NC1=O)C2=O)C(=O)c1ccc(-n2cc(NC(=O)c3coc(-c4ccncc4)n3)c(C(N)=O)n2)cc1 (centres unmarked) [I-227] | A (>50% degradation) |
